Tested on: EKVX NSCLC
Assay: NCI-60 one-dose screen, 48 h
Details: 10 µM unless noted
This is part of a sample that, as a whole, favours compounds with a hit. Of some 83,000 tested, about 20% had one in any assay. The source made the active and inactive calls. The calls were made as follows: active = growth percent below 10; inactive = the rest.
Allowed answers: Y for active, N for inactive

Example entries begin here.
- Compound: "c1ccc(Sc2ncccn2)nc1"
  Cat: "N"
- Compound: "CC(=O)c1ccc(NC(=O)CSc2nnc(-c3cc(-c4ccc(Cl)cc4)nc4ccccc34)o2)cc1"
  Cat: "N"
- Compound: "C#CCN(CCCOc1ccc(Cl)cc1Cl)CCCSC(=O)CCCCCN1/C(=C\\C=C2/CCCC(/C=C/C3=[N+](CCCCCC(=O)[O-])c4ccccc4C3(C)C)=C2Cl)C(C)(C)c2ccccc21"
  Cat: "N"
- Compound: "O=C(CSC(=S)N1CCCCC1)Nc1ccccc1"
  Cat: "N"
- Compound: "NS(=O)(=O)c1ccc(C2C3=C(CCCC3=O)OC3=C2C(=O)c2ccccc2C3=O)cc1 (stereo not given)"
  Cat: "Y"

# outcome recorded in this test, key = O=C1CC23OC(C(O)c4ccccc4N12)C1C(c2ccccc2)=NOC13 (stereo not given) N

Similarly, COC(=O)/C=C1\SC(=Nc2ccc(C(F)(F)F)cc2)N(CCc2c[nH]c3ccccc23)C1=O ? Y

Similarly, Oc1c(CCl)cc(Cl)cc1Cc1cc(Cl)cc(Cc2cc(Cl)cc(CCl)c2O)c1O ? N

Similarly, CCOCc1cc(C(C)(C)C)ccc1O ? N

Similarly, CCCCCCCc1n(Cc2ccc3ccccc3c2)c2ccccc2[n+]1Cc1ccc2ccccc2c1 ? Y

---

Test system: MDA-MB-435 melanoma
Assay: NCI-60 one-dose screen, 48 h
Details: 10 µM unless noted
This is part of a sample that, as a whole, favours compounds with a hit. Of some 83,000 tested, about 20% had one in any assay. Active and inactive are the calls of the source. Rule for the calls: active = growth percent below 10; inactive = the rest.
Allowed answers: 1.0 for active, 0.0 for inactive

Example entries begin here.
- Molecule: "COc1ccc2[nH]c(=O)c(/C=C/C(=O)/C=C/c3ccc(O)c(OC)c3)cc2c1"
  Cat: 1.0
- Molecule: "O=C1C(Cl)=C(NCCCN(CCCNC2=C(Cl)C(=O)c3ccccc3C2=O)C2=C(Cl)C(=O)c3ccccc3C2=O)C(=O)c2ccccc21"
  Cat: 1.0

# outcome recorded in this test, key = O=C(O)c1ccc(-n2cc(/C=N/Nc3ccc(Cl)cc3Cl)c(-c3ccccc3)n2)cc1 0.0

Similarly, Cc1cccc(C)c1Nc1nnc(-c2ccc(F)cc2)o1 ? 0.0

Similarly, O=C(C[n+]1cccc2cc(Cl)ccc21)c1ccc2c(c1)CCCC2 ? 0.0

Similarly, C=C1C(=O)O[C@H]2[C@H]1CC/C(COC(=O)NCC(=O)Nc1ccc(OC)c(C(N)=O)c1O)=C\CC[C@@]1(C)O[C@@H]21 ? 0.0

Similarly, COC1=CC2C=C(C3N(c4ccccc4)NC(=O)[C@@H]4CCCN34)C(=O)NC2C=C1 (some centres undefined) ? 0.0

Similarly, CCOC(=O)c1c(-c2ccc(O)cc2)c(C#N)c2c(C#N)c(N)nn2c1N ? 1.0

Similarly, COc1ccc(/C=C/C(=O)/C=C(/C=C/c2ccc(OC)c(OC)c2)OB(F)F)cc1OC ? 1.0

---

System: MOLT-4 leukemia
Assay: NCI-60 one-dose screen, 48 h (100 = growth as untreated, 0 = no growth, -100 = all killed)
Settings: 10 µM unless noted
The panel holds about 83,000 compounds, 20% with a hit somewhere; the sample as a whole holds those more often.
We begin with a simple list: items and their reported growth.
Numeric answer only, unit % assumed.

Below, 3 compounds whose answers are already recorded.
- Compound: "CC(C)NS(=O)(=O)c1cccc(-c2ccc3c4c(n(CCCN(C)C)c(=O)c3c2)-c2ccccc2C4=O)c1"
  growth, %: 68.2
- Compound: "COc1cc(NCC(=O)Nc2cc(Nc3ccc(C)cc3)ncn2)c(Cl)c(OC)c1Cl"
  growth, %: 60.8
- Compound: "C#C[C@@]1(O)[C@@H](CO)O[C@@H](n2ccc3c(N)ncnc32)[C@@H]1O"
  growth, %: -1.22

Can you look up the measured growth of CCN1CCC[C@H]1c1cc(O)c2c(c1OC)C[C@H]1C[C@H]3[C@H](N)C(=O)C(C(N)=O)=C(O)[C@@]3(O)C(=O)C1=C2O for me? -16.8

Similarly, Cc1nc2sc(C(=O)Nc3ccccc3)c(N)c2cc1C(C)O (centres undefined) ? 25.7

Similarly, COc1ccc2nc(-c3ccc(Cl)cc3)cc(-c3nnc(SC/C(=N/O)c4ccccc4)o3)c2c1 ? 52.5

Similarly, NS(=O)(=O)c1ccc(C2C3=C(CCCC3=O)OC3=C2C(=O)c2ccccc2C3=O)cc1 (centres undefined) ? -54.6

Similarly, CN(C)[C@@H]1C(=O)C(C(N)=O)=C(O)[C@@]2(O)C(=O)C3=C(O)c4c(O)cc(CN5CCc6ccccc6C5)c(Cl)c4C[C@H]3C[C@@H]12 ? -67.9

Similarly, O=C1CC23OC4ON=C(Br)C4C2C(O)c2ccccc2N13 (centres undefined) ? 99.6

Similarly, CC(C)C[C@H](C(=O)O)N(C)C(=O)[C@@H]1CCCN1C(=O)[C@H](C)OC(=O)[C@H](CCC(N)=O)NC(=O)[C@@H]1CCC(=O)N1 ? 111

Similarly, COCCOC(=O)COc1ccc(OC)cc1 ? 90.7
